Just for reference, patent US20250136694A1 is where these values come from.

Would you mind telling me the reported Maximum MFI of each entry?
Target: T1, cynomolgus monkey B7-H4 on the cell surface (cynomolgus monkey, UniProt A0A2K5U6P5 25-282)
T1 construct: whole, on cells; also called cyno B7-H4; CHO-K1/cynoB7-H4
T1 sequence: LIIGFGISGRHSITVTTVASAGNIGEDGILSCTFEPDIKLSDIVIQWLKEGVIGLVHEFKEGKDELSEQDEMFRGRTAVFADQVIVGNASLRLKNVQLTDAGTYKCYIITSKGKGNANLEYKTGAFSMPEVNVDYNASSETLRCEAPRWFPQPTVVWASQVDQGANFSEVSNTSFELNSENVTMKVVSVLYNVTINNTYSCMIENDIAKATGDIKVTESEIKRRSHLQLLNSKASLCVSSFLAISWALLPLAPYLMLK
Assay: FACS, CHO-K1/cyno B7-H4 cells
One number for each entry, in MFI.

BINDER: PR006004 (antibody, V domains shown, also called R7004M1A2; anti-human B7-H4 HCAb monoclonal antibody) VH: EVQLVESGGGLVQPGGSLRLSCAASGFAFSNYWMHWARQVPGKGRVWISRISGDGRSTSYADSVKGRFTISRDNAKNMVYLQMNNLRAEDTAVYYCARDRFGDDYYYGMNVWGQGTTVTVSS
OBSERVED_MEASUREMENT: 1.57e+06
//
BINDER: PR006008 (antibody, IgG1, V domains shown, also called R7004M6D4; anti-human B7-H4 HCAb monoclonal antibody) VH: EVQLVESGGGLVQPGGSLRLSCAASGFTFTDFWMHWVRQVPGKGREWVSRISPDGSSTSYEDSVKGRFTISRDNAKNTVYLQMHGLRAEDTAVYYCTRFSTGWHRIEYFQHWGQGTLVTVSS
OBSERVED_MEASUREMENT: 1.25e+06
//
BINDER: PR007441 (antibody, IgG1, V domains shown, also called PTM variant (G55S) of PR006008) VH: EVQLVESGGGLVQPGGSLRLSCAASGFTFTDFWMHWVRQVPGKGREWVSRISPDSSSTSYEDSVKGRFTISRDNAKNTVYLQMHGLRAEDTAVYYCTRFSTGWHRIEYFQHWGQGTLVTVSS
OBSERVED_MEASUREMENT: 1.26e+06

In the following, a different binder is considered.
Need Maximum MFI of PR007440 (antibody, IgG1, V domains shown, also called PTM variant (G55S) of PR006004) VH: EVQLVESGGGLVQPGGSLRLSCAASGFAFSNYWMHWARQVPGKGRVWISRISGDSRSTSYADSVKGRFTISRDNAKNMVYLQMNNLRAEDTAVYYCARDRFGDDYYYGMNVWGQGTTVTVSS , thanks.
1.59e+06
